# test-target: N-terminal His-tagged TYK2 pseudokinase domain (Homo sapiens, UniProt P29597)
# Construct: the N-terminal His-tagged TYK2 pseudokinase domain; His (N); purchased Pharmaron
# Sequence (P29597 589-875 limits assumed): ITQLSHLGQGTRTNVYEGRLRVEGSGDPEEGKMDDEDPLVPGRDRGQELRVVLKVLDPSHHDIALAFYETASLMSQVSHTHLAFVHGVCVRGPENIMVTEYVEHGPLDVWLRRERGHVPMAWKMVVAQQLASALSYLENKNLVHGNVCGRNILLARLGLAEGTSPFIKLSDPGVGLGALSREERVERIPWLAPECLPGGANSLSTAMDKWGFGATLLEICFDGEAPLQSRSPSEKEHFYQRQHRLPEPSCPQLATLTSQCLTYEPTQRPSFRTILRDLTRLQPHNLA
# method: TYK2 JH2 domain SPA binding assay
# condition-label: displacement of H3 probe (20 nM), 30 min room temperature; class symbols
# Procedure: TYK2 JH2 Domain Binding Assay After incubating at room temperature for 30 min, the inhibition was calculated by the displacement of [3H] 3 binding as determined by scintillation counting. Dose-response curves were generated to determine the concentration required to inhibit H3 probe binding by […] (IC50).
quantity: IC50

| compound | IC50 |
| --- | --- |
| [2H]C([2H])([2H])Nc1cc(Nc2cccn(C3CC4(CCCO4)C3)c2=O)nn2c(C(=O)N[C@@H]3C[C@@H]3F)cnc12 (single isomer, unassigned) [Compound 104a] | 10 to 100 nM |
| CNc1cc(Nc2cccn(-c3ccccn3)c2=O)nc2c(C(=O)NC3CCn4ncnc43)cnn12 (stereo not drawn) | 10 to 100 nM |

Pending compound:
Could you share what IC50 was measured for CNc1cc(Nc2cccn(C3C[C@H]4CC[C@@H](C3)O4)c2=O)nc2c(C(=O)N[C@@H]3C[C@@H]3F)cnn12 (stereo partly drawn) , tested on N-terminal His-tagged TYK2 pseudokinase domain (Homo sapiens, UniProt P29597)? 10 to 100 nM

---

Each entry below carries its reported IC50.
# Tested on: IL-23 induced STAT3 in HEK-Blue™ IL-23 cells
# method: IL-23 induced STAT3 QUANTI-Blue reporter assay in HEK-Blue IL-23 cells
# Assay type: cell-based
# condition-label: HEK-Blue IL-23 cells, IL-23 0.1 ng/mL, SEAP levels; class symbols; read-out: IL23 reporter assay (IC50 nM)
# Experimental: Biological Example 2. IL-23 Induced STAT3 QUANTI-Blue in HEK-Blue™ IL-23 Cells HEK-Blue™ IL-23 cells were prepared at 2×10^5 cells/ml for adding 5000 cell/well and incubate plates containing compounds+cells for 1 hour at 37° C. Prepare IL-23 (treatment at final conc. 0.1 ng/mL) during incubation and add 2 ul per well of prepared cytokine in media to appropriate wells. The plate is incubated for overnight at 37° C. The next day, QUANTI-Blue solution is prepared. […]

| molecule | IC50 |
| --- | --- |
| [2H]C([2H])([2H])Nc1cc(Nc2cccn(C3CC4(CCCO4)C3)c2=O)nn2c(C(=O)N[C@@H]3C[C@@H]3F)cnc12 (single isomer, unassigned) [Compound 104b] | 10 to 100 nM |

Returns the measured IC50 for the input molecule. Input: CNc1cc(Nc2cccn([C@@H]3C[C@H]4CCO[C@H]43)c2=O)nn2c(C(=O)NC3CCC4CCOC43)cnc12 (single isomer, unassigned) [Compound 95b] ≥ 1000 nM

What do you have for CNc1cc(Nc2cccc3c2OCCC3)nn2c(C(=O)NC(C)c3ncco3)cnc12 (single isomer, unassigned) [Compound 22b] ? < 10 nM

---

# test-target: N-terminal His-tagged TYK2 pseudokinase domain (Homo sapiens)
# Construct: the N-terminal His-tagged TYK2 pseudokinase domain; His (N); purchased Pharmaron
# method: TYK2 JH2 domain SPA binding assay
# condition-label: displacement of H3 probe (20 nM), 30 min room temperature; class symbols
Let's look at some compounds and their measured IC50.

Look up IC50 with N-terminal His-tagged TYK2 pseudokinase domain (Homo sapiens) for this compound: CNc1cc(Nc2cccn(-c3ccccn3)c2=O)nn2c(C(=O)NC(C)c3ncco3)cnc12 (racemic) [Compound 34] 10 to 100 nM

Query CNc1cc(Nc2cccn(C3CC4CCOC43)c2=O)nn2c(C(=O)N[C@@H]3C[C@@H]3F)cnc12 (single isomer, unassigned) [Compound 105b] next 100 to 1000 nM

Do the same for [2H]C([2H])([2H])Nc1cc(Nc2cccn([C@H]3C[C@H](OC([2H])([2H])[2H])C3)c2=O)nc2c(C(=O)N[C@@H]3C[C@H]4CCO[C@H]43)cnn12 [Compound 19] please 10 to 100 nM

Now the compound CNc1cc(Nc2cccn([C@H]3CC[C@H](OC)CC3)c2=O)nn2c(C(=O)N[C@@H]3C[C@@H]3F)cnc12 [Compound 16] 10 to 100 nM

Check [2H]C([2H])([2H])Nc1cc(Nc2cccn([C@H]3CC[C@H](OC([2H])([2H])[2H])CC3)c2=O)nn2c(C(=O)N[C@@H]3C[C@H]4CCO[C@H]43)cnc12 [Compound 11] too. < 10 nM

What do you get for [2H]C([2H])([2H])Nc1cc(Nc2cccn(C3CC4(CCOC4)C3)c2=O)nc2c(C(=O)N[C@@H]3C[C@H]4CCO[C@H]43)cnn12 (single isomer, unassigned) [Compound 97b] ? 10 to 100 nM

Next compound up: CNc1cc(Nc2cccn([C@@H]3C[C@H]4CCO[C@H]43)c2=O)nn2c(C(=O)NC3CCC4CCOC43)cnc12 (single isomer, unassigned) [Compound 95b] > 1000 nM

Moving on to the next compound: [2H]C([2H])([2H])Nc1cc(Nc2cccn(C3CCCC4(COC4)C3)c2=O)nn2c(C(=O)N[C@@H]3C[C@@H]3F)cnc12 (single isomer, unassigned) [Compound 75b] 10 to 100 nM

Another compound to look at: CNc1cc(Nc2cccc3c2OCCC3)nn2c(C(=O)NC(C)c3ncco3)cnc12 (single isomer, unassigned) [Compound 22a] > 1000 nM
